target: human TRPA1 ion channel (Homo sapiens (Human), UniProt O75762); assay: Assay A: TRPA1 assay (FLIPR calcium, AITC agonism, HEK293 over-expressing human TRPA1); details: HEK293 over-expressing human TRPA1, AITC 10 μM, FLIPRtetra; read-out: hTRPA1 IC50
Sequence (O75762 whole entry): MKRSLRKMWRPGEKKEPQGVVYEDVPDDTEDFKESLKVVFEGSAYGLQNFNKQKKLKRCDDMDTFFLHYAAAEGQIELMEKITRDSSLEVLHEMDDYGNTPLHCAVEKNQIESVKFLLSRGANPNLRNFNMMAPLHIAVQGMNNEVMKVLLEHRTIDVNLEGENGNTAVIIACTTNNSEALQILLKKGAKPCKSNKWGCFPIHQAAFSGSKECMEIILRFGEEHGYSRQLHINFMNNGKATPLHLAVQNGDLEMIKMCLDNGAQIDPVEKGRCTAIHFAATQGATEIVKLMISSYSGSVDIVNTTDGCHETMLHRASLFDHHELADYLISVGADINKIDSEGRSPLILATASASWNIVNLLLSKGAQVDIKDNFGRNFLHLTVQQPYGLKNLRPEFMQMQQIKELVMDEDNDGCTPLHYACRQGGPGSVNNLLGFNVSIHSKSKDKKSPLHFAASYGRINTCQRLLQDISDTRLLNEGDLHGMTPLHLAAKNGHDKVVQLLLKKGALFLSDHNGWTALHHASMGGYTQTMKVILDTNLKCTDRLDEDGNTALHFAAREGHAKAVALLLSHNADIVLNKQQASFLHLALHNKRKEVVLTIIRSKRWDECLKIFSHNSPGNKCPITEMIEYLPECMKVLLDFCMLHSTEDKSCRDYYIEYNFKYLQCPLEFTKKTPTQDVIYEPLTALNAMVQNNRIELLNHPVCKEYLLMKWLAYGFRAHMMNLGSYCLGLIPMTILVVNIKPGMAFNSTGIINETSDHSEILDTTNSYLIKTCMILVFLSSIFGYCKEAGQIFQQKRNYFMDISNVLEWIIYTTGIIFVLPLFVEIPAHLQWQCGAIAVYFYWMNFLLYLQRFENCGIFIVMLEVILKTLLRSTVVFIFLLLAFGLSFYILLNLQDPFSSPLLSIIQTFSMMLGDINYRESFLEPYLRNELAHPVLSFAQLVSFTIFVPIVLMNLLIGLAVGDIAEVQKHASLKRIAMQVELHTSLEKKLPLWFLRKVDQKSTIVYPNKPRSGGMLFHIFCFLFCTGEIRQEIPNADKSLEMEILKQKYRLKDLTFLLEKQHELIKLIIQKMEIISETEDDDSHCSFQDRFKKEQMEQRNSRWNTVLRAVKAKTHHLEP
readout.label: IC50

>>> experimental_result("Cc1c(C(N)=O)sc2ncn(Cc3nnn(C[C@H](O)c4ccc(Cl)cc4)n3)c(=O)c12")
"11 nM"
>>> experimental_result("O=C1NCCc2c1sc1ncn(Cc3nnn(C[C@H](O)c4cc5cc(Cl)ccc5o4)n3)c(=O)c21")
"14 nM"
>>> experimental_result("Cc1ccc([C@@H](O)Cn2nnc(Cn3cnc4sc5c(c4c3=O)CCNC5=O)n2)cc1")
"14 nM"
